Measured values drawn from ChEMBL document CHEMBL1122958 for this set.

assayed-target: Angiotensin-converting enzyme (Rattus norvegicus)
Sequence (whole entry): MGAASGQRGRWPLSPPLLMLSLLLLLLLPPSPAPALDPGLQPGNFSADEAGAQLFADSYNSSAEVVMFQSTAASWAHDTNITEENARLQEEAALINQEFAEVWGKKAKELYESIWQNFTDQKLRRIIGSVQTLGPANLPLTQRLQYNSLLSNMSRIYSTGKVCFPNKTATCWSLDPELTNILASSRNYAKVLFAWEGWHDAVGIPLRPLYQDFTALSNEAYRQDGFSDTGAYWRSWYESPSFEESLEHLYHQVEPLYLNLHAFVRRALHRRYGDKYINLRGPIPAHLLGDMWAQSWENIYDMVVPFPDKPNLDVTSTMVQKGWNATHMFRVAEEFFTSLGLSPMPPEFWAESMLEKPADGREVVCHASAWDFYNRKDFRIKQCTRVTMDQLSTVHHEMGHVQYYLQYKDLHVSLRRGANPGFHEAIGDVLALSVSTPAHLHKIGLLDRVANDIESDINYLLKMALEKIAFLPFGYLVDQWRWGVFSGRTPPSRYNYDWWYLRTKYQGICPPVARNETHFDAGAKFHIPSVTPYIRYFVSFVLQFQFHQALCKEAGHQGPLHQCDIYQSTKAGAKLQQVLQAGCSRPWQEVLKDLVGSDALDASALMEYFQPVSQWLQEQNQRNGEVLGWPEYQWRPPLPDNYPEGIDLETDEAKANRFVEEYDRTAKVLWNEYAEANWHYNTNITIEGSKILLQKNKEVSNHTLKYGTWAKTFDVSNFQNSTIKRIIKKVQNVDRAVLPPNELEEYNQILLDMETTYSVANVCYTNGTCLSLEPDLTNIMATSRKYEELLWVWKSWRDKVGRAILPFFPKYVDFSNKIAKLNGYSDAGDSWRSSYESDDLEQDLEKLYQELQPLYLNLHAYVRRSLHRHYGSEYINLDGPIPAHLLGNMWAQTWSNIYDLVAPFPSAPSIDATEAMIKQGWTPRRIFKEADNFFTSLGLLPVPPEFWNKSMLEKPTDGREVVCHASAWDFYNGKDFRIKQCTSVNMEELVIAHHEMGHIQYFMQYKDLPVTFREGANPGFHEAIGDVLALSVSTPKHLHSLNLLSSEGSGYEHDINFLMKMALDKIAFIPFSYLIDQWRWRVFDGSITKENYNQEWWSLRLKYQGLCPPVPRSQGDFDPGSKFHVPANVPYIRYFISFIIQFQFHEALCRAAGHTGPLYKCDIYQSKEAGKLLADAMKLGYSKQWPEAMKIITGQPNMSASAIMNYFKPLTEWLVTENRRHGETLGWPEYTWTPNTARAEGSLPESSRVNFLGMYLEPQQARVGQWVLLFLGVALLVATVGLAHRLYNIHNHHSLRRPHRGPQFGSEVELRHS
procedure-details: In vivo mean duration for Angiotensin I converting enzyme inhibitory activity in 2 rats administered perorally at a dose of 1.5 mg/kg
Format: functional, organism-based
Set-up: dose 1.5 mg/kg
recorded-endpoint: Mean duration (min)
# value in min; strip the unit string

Enquiry: Which Mean duration reading was recorded for the compound CC(C)(C)C(=O)Sc1ccccc1C(=O)N(CC(=O)O)C1CCCC1 ?
Return: 0

Enquiry: Quick one: CC(=O)Sc1c(C)cccc1C(=O)N(CC(=O)O)C1CCCC1
Return: 20

Enquiry: Quick one: CC(=O)Sc1ccccc1C(=O)N(CC(=O)O)C1CCCC1
Return: 0

Enquiry: Quick one: O=C(O)CN(C(=O)c1ccccc1S)C1CCCC1
Return: 35

* * *

Task for the reader: assign each of the following compounds its reported pIC50.
assayed-target: Angiotensin-converting enzyme (Oryctolagus cuniculus)
Sequence (P12822 whole entry): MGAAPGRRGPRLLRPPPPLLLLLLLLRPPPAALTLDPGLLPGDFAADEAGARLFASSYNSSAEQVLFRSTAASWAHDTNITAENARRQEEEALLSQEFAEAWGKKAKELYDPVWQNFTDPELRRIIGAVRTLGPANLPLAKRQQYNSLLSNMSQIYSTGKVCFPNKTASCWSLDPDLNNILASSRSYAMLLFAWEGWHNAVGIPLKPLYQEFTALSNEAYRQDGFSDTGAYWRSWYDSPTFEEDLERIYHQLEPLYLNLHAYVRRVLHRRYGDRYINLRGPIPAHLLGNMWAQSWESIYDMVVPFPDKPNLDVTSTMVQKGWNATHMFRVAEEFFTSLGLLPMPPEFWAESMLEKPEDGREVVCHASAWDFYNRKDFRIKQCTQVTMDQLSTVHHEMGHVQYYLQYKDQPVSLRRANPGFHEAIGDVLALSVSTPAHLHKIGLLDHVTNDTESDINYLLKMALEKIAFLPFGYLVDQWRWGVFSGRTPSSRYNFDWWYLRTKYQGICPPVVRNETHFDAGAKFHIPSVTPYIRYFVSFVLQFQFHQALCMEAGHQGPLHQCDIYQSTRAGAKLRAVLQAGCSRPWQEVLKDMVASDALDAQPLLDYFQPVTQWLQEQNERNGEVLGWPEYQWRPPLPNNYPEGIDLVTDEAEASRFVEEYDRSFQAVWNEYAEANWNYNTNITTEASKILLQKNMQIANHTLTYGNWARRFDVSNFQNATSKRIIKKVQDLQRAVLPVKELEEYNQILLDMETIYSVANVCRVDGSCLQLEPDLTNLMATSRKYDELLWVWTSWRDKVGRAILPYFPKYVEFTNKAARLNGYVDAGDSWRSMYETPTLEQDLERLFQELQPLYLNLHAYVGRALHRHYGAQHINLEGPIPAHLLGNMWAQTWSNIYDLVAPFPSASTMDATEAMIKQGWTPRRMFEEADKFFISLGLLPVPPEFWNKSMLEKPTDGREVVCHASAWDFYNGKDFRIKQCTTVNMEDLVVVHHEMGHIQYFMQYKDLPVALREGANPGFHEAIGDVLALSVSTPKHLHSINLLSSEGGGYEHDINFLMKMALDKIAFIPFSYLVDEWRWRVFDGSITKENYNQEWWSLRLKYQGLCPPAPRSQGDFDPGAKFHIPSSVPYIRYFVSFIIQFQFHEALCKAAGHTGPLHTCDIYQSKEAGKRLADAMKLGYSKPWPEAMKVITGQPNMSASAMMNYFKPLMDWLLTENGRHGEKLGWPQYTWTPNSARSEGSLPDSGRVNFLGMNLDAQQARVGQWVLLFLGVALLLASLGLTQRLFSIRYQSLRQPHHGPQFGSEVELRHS
FYI, pIC50 means -log10 of a concentration in mol per litre.

Enquiry: Which pIC50 reading was recorded for the compound CC(=O)Sc1c(F)cccc1C(=O)N(CC(=O)O)C1CCCC1 ?
Return: 6.22

Enquiry: Quick one: O=C(O)CN(C(=O)c1ccc(S)cc1)C1CCCC1
Return: 4.68

Enquiry: Quick one: O=C(O)CN(C(=O)c1cc(Cl)ccc1S)C1CCCC1
Return: 4.10

Enquiry: Quick one: CC(=O)Sc1cccc(C(=O)N(CC(=O)O)C2CCCC2)c1
Return: 4.55

Enquiry: Quick one: O=C(O)CN(C(=O)c1ccccc1C(=O)O)C1CCCC1
Return: 4.00

Enquiry: Quick one: CC(=O)Sc1ccccc1C(=O)N(CC(=O)O)C1CCCC1
Return: 5.04

Enquiry: Quick one: O=C(O)CN(C(=O)c1cccc(F)c1S)C1CCCC1
Return: 6.26

Enquiry: Quick one: CCOC(=O)CN(C(=O)c1cc(Cl)cc(Cl)c1OC(C)=O)C1CCCC1
Return: 4.00

* * *

assayed-target: UniProt P47820
Sequence (whole entry): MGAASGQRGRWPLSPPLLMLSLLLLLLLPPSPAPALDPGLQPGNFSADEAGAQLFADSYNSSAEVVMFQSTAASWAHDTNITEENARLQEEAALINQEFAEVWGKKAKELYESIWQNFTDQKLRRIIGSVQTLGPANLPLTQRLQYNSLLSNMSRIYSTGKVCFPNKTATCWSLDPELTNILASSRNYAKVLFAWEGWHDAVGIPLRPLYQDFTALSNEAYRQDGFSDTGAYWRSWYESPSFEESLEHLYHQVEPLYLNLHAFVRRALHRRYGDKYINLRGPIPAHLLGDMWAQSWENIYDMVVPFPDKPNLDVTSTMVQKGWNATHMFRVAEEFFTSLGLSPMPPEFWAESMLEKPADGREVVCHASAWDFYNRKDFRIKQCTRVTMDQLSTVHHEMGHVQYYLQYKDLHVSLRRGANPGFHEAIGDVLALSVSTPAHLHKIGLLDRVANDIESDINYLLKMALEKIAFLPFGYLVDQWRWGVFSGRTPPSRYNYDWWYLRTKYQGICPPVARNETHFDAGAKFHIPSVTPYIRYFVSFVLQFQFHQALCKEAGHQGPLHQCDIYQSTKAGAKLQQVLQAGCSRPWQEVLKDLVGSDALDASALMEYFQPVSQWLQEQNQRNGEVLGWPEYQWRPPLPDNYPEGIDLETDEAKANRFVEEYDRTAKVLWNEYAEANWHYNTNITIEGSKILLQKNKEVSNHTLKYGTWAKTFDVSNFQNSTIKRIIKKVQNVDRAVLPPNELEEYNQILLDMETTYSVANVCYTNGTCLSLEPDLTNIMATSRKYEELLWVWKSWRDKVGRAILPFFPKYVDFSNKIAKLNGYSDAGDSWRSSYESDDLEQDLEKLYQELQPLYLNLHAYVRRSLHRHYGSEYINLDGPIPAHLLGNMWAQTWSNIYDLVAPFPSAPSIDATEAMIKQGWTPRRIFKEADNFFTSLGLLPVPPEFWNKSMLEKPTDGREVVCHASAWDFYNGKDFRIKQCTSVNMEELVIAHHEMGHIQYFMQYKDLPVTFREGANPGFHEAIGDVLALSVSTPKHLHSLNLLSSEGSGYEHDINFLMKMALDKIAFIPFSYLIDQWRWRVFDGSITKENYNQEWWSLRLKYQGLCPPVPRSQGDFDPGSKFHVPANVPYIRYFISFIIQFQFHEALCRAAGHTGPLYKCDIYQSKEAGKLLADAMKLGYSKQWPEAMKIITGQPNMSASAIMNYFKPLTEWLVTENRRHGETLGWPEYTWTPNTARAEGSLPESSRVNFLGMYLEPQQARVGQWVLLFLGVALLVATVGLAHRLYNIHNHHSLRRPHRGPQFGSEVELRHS
procedure-details: In vivo mean duration for Angiotensin I converting enzyme inhibitory activity in 2 rats administered perorally at a dose of 10 mg/kg
Type: functional, organism-based
Design: dose 10 mg/kg
Task for the reader: assign each of the following compounds its reported Mean duration.
Record the result as number plus unit.

Enquiry: Which Mean duration reading was recorded for the compound O=C(O)CN(C(=O)c1cccc(S)c1)C1CCCC1 ?
Return: 0 min

Enquiry: Quick one: Cc1cccc(C(=O)N(CC(=O)O)C2CCCC2)c1S
Return: 50 min

Enquiry: Quick one: O=C(O)CN(C(=O)c1cccc(C(F)(F)F)c1S)C1CCCC1
Return: 20 min

Enquiry: Quick one: CC(C)c1cccc(C(=O)N(CC(=O)O)C2CCCC2)c1S
Return: 0 min

Enquiry: Quick one: CC(=O)Sc1c(F)cccc1C(=O)N(CC(=O)O)C1CCCC1
Return: 90 min

Enquiry: Quick one: O=C(O)CN(C(=O)c1cc(Cl)ccc1S)C1CCCC1
Return: 0 min

Enquiry: Quick one: O=C(O)CN(C(=O)c1cccc(F)c1S)C1CCCC1
Return: 105 min

* * *

assayed-target: Angiotensin-converting enzyme (Rattus norvegicus) (UniProt P47820)
procedure-details: In vivo percent mean decrease in Angiotensin I converting enzyme inhibitory activity in 2 rats administered perorally at a dose of 10 mg/kg
Type: functional, organism-based
Design: dose 10 mg/kg
recorded-endpoint: Mean decrease (%)
# value in %; strip the unit string

Enquiry: Which Mean decrease reading was recorded for the molecule O=C(O)CN(C(=O)c1cccc(F)c1S)C1CCCC1 ?
Return: 84

Enquiry: Quick one: CC(C)c1cccc(C(=O)N(CC(=O)O)C2CCCC2)c1S
Return: 23

Enquiry: Quick one: O=C(O)CN(C(=O)c1cccc(C(F)(F)F)c1S)C1CCCC1
Return: 31

Enquiry: Quick one: CC(=O)Sc1c(F)cccc1C(=O)N(CC(=O)O)C1CCCC1
Return: 82

Enquiry: Quick one: Cc1cccc(C(=O)N(CC(=O)O)C2CCCC2)c1S
Return: 77

Enquiry: Quick one: O=C(O)CN(C(=O)c1cccc(S)c1)C1CCCC1
Return: 13
